Cited source for all entries: patent US20210315933A1

Target: T1, human IL13Rα2 on cells (human, UniProt Q14627 27-380)
T1 construct: whole, on cells; also called hIL13Rα2
T1 sequence (looked up): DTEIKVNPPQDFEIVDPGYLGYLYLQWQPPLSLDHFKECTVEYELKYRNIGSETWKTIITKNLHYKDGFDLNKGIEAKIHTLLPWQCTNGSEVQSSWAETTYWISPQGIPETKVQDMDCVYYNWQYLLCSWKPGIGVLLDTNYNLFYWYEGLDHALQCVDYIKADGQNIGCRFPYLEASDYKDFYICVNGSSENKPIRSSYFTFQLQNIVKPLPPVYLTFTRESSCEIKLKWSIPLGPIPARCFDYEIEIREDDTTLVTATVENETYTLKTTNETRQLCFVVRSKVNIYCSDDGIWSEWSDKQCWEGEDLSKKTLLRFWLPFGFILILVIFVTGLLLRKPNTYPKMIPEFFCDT
Assay: flow cytometry; cell line not stated
The threshold is 3000 MFI. Values of Flow Cytometry MFI beneath it are tagged met; values meeting or exceeding it are tagged not met.

INSERT INTO assay_data (binder, discrete_label) VALUES
  ('Humanized Llama single domain anti-IL13Rα2 Clone 2-h10 (H2-LSD2) (VHH, Captured on a Ni-NTA sensor, so a His tag is implied; the tag is not described) VHH: EVQLVESGGGLVQPGGSLRLSCAASGFASDDYIMGWVRQAPGKGLEWVSCISSRYANTYYADSVKGRFTISRDNAKNTLYLQMNSLRPEDTAVYYCAMDSRRVTCPEISTMHRNFDSWGQGTLVTVSS', 'met');

Query :: Determine if Humanized Llama Single domain anti-IL13Rα2 Clone 2-h8 (H1-LSD2) (VHH, Captured on a Ni-NTA sensor, so a His tag is implied; the tag is not described) VHH: EVQLVESGGGLVQPGGSLRLSCAASGFASDDYIMGWFRQAPGKGLEGVSCISSRYANTYYADSVKGRFTISRDNAKNTLYLQMNSLRPEDTAVYYCAMDSRRVTCPEISTMHRNFDSWGQGTLVTVSS shows Flow Cytometry MFI strictly lower than 3000 MFI.
Result :: met

Query :: Determine if anti-IL13Rα2 Clone 2 humanized variant 2-h6 (VHH) VHH: EVQLVESGGGLVQPGGSLRLSCAASGFASDDYIMGWFRQAPGKGLEGVSCISSRYANTVYADSVKGRFTISRDNAKNTLYLQMNSLRPEDTAVYYCAMDSRRVTCPEISTMHRNFDSWGQGTQVTVSS shows Flow Cytometry MFI strictly lower than 3000 MFI.
Result :: met

Query :: Determine if Llama single domain anti-IL13Rα2 Clone 2 (LSD2) (VHH, Captured on a Ni-NTA sensor, so a His tag is implied; the tag is not described; also called 2-parental; clone 2 parental) VHH: DVQLVESGGGLVQPGGSLRLSCEASGFASDDYIIGWFRQAPGKEREGVSCISSRYANTVYTDSVKGRFRISRGTAKNTVYLQMSALKPEDTAVYYCAMDSRRVTCPEISTMHRNFDSWGQGTQVTVSS shows Flow Cytometry MFI strictly lower than 3000 MFI.
Result :: not met

Query :: Determine if anti-IL13Rα2 Clone 2 humanized variant 2-h5 (VHH) VHH: EVQLVESGGGLVQPGGSLRLSCAASGFASDDYIMGWFRQAPGKGLEGVSCISSRYANTVYADSVKGRFTISRDNAKNTVYLQMNSLRPEDTAVYYCAMDSRRVTCPEISTMHRNFDSWGQGTQVTVSS shows Flow Cytometry MFI strictly lower than 3000 MFI.
Result :: met
